assay: Differential scanning calorimetry of fatty acid treated porcine stratum corneum; conditions: stratum corneum treated with […] fatty acid in ethanol, 30% (w/w) water
Assign true to entries whose DSC Tm (temperature of the transition maximum) meets or exceeds 60 °C; assign false to the rest.

compound	class-name
CCCCCCCCCCC/C=C/CCCCC(=O)O	true
CCCCCCCCCCCCCCCCCC(=O)O	true
CCCCCC/C=C\CCCCCCCCCC(=O)O [cis-vaccenic, cis-11-octadecenoic acid]	false

###

type: in vitro ADME, porcine
Form field: Flux of Salicylic Acid (one value per entry).

compound	unit-info	Flux of Salicylic Acid
CCCCCCCCCCC/C=C\CCCCC(=O)O	mg/cm^2 /hr	0.79
CCCCCCCC/C=C/CCCCCCCC(=O)O	mg/cm^2 /hr	2.35
CCCCCCCC/C=C\CCCCCCCC(=O)O [Oleic Acid, cis-9-octadecenoic acid]	mg/cm^2 /hr	3.81
CCCCCCCCCCC/C=C/CCCCC(=O)O	mg/cm^2 /hr	0.97

###

assay: physchem; details: 10/90 ethanol/buffer, […] oleic acid, organic solvent or mixture
measured-endpoint: solubility (µg/mL)

molecular-string	readout-number
CN1C(C(=O)Nc2ccccn2)=C(O)c2ccccc2S1(=O)=O	190

###

assay: physchem; settings: 0/100 ethanol/buffer, […] oleic acid, organic solvent or mixture

molecule	solubility / µg/mL
CN1C(C(=O)Nc2ccccn2)=C(O)c2ccccc2S1(=O)=O [Piroxicam]	40

###

assay: physchem; conditions: 30/70 ethanol/buffer, […] oleic acid, organic solvent or mixture

molecular-string	solubility / µg/mL
CN1C(C(=O)Nc2ccccn2)=C(O)c2ccccc2S1(=O)=O	710

###

experiment: physchem; details: 40/60 ethanol/buffer, […] oleic acid, organic solvent or mixture
measured-endpoint: solubility (µg/mL)

molecular-string	measured-endpoint	readout-number
CN1C(C(=O)Nc2ccccn2)=C(O)c2ccccc2S1(=O)=O	solubility	1200

###

assay: physchem; conditions: 100/0 ethanol/buffer, […] oleic acid, organic solvent or mixture

molecular-string	unit-info	solubility
CN1C(C(=O)Nc2ccccn2)=C(O)c2ccccc2S1(=O)=O	µg/mL	1200

###

experiment: Saturation concentration of drug in vehicle; settings: 30% ethanol/acetate buffer, pH 5, organic solvent or mixture
Where a name gives a salt, the structure may show the parent alone.

compound	solubility / µg/mL
COc1cc2nc(N3CCN(C(=O)C4COc5ccccc5O4)CC3)nc(N)c2cc1OC (stereo not shown) [doxazosin mesylate]	8950

###

assay: physchem; conditions: 20/80 ethanol/buffer, […] oleic acid, organic solvent or mixture
measured-endpoint: solubility (µg/mL)

molecular-string	unit-info	readout-number
CN1C(C(=O)Nc2ccccn2)=C(O)c2ccccc2S1(=O)=O	µg/mL	460

###

assay: physchem; settings: 50/50 ethanol/buffer, […] oleic acid, organic solvent or mixture

molecular-string	unit-info	solubility
CN1C(C(=O)Nc2ccccn2)=C(O)c2ccccc2S1(=O)=O	µg/mL	1500

###

experiment: Differential scanning calorimetry of fatty acid treated porcine stratum corneum; conditions: stratum corneum treated with […] fatty acid in ethanol, 30% (w/w) water
measured-endpoint: DSC Tm (temperature of the transition maximum) (°C)

compound	readout-number
CCCCCCCC/C=C/CCCCCCCC(=O)O	61.5
CCCCCC/C=C/CCCCCCCCCC(=O)O [trans-vaccenic, trans-vaccenic acid]	61.0
CCCCCCCC/C=C\CCCCCCCC(=O)O [Oleic Acid, cis-9-octadecenoic acid]	59.0
CCCCCCCCCCC/C=C\CCCCC(=O)O	60.5
